Biological target: human ether-à-go-go-related gene (hERG) potassium channel (human)
Sequence (Q12809 whole entry, looked up): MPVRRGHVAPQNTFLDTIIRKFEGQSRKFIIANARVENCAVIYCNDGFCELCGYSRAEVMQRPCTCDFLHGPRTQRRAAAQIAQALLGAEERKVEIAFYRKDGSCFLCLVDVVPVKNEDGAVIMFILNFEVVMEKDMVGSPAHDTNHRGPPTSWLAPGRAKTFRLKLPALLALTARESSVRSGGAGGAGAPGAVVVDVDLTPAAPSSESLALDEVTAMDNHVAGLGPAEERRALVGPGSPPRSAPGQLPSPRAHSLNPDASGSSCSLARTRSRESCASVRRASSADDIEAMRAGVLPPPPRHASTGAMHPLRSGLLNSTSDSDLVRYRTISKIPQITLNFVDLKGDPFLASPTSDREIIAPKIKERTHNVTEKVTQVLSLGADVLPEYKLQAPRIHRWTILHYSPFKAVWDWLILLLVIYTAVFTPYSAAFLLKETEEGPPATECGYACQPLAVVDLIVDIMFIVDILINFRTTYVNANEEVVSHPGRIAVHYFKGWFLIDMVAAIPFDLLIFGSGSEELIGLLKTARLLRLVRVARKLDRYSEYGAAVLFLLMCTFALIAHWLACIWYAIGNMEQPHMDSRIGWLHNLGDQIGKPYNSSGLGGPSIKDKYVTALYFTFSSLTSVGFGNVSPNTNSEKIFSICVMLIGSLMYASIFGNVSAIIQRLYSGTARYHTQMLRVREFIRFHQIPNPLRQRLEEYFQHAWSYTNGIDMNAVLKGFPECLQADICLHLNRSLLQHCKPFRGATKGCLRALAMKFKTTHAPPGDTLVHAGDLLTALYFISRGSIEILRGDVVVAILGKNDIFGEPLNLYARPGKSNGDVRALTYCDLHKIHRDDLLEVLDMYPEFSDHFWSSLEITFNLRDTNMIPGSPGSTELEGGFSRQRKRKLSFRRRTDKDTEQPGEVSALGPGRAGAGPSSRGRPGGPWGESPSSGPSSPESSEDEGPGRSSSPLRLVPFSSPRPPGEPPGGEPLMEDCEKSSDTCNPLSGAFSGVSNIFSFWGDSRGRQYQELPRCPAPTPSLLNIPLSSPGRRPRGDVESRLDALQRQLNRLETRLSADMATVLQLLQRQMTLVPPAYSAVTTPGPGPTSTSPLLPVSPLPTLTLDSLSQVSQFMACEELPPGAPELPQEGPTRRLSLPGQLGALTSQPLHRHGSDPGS
Test: primary screen, population patch clamp on CHO cells stably expressing hERG; higher = less effect of the substance
Procedure: Briefly, Chinese hamster ovary (CHO) cells stably expressing the hERG channel were dislodged from tissue culture flasks and dispensed into PPC plates. […] During the recording, background leak currents were estimated by a 100 ms step to -80 mV from an initial holding potential of -70 mV and subtracted from the subsequent current measurement. The campaign was conducted in two phases using slight differences in recording protocol. […]
The campaign covered roughly 310,000 compounds. About 14,000 (4.5%) showed an effect of 50% or more. Effects have a minus sign here. The sample as a whole holds a higher share of strong results than the screen did.
Readout name: hERG current change (%, negative = inhibition) at 10uM (%)
Numeric answer only, unit % assumed.

Molecule: O=C(Nc1c2c(nn1-c1ccc(F)cc1)CS(=O)C2)c1ccc(S(=O)(=O)N2CCOCC2)cc1 (stereo not drawn)
Measurement target: human ether-à-go-go-related gene (hERG) potassium channel (human);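 also: peak tail current of the secondary pulse compared with the same well before compound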
Reported result: 21.9
--
Molecule: Cc1cc(Cl)c(OCCCNC2CCCC2)c(Br)c1.O=C(O)C(=O)O
Measurement target: human ether-à-go-go-related gene (hERG) potassium channel (human);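 also: peak tail current of the secondary pulse compared with the same well before compound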
Reported result: -56.9
--
Molecule: CC(=O)/C(C[N+]1(C)CCCCC1)=N\O.[I-]
Measurement target: human ether-à-go-go-related gene (hERG) potassium channel (human);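 also: peak tail current of the secondary pulse compared with the same well before compound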
Reported result: 16.4
--
Molecule: OCC1(CCOc2ccccc2)CCN(Cc2cccn2-c2ncccn2)CC1
Measurement target: human ether-à-go-go-related gene (hERG) potassium channel (human);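 also: peak tail current of the secondary pulse compared with the same well before compound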
Reported result: -82.2

# query: hERG current change (%, negative = inhibition) at 10uM of entry Cc1cc(C)c(OCCCNCc2ccccc2)c(Br)c1.O=C(O)C(=O)O -10.7

Then this molecule: CCOC(=O)c1ccc(-c2ccc(/C=C(\C#N)C(=O)NCc3cccs3)o2)cc1 18

Then this molecule: Cc1ccc(CN2CCN(Cc3ccc4ncccc4c3)CC2CCO)cc1 (stereo not drawn) -58.9

Then this molecule: COc1ccc(OCC(=O)O/N=C(\N)c2ccc(OC)c(OC)c2)cc1 7.84

Then this molecule: CC(C)CN1CCN(Cc2ccc3ncccc3c2)CC1CCO (stereo not drawn) -13.2

Then this molecule: COc1ccc(-n2c(=O)c3ccccc3n(CC(=O)c3ccccc3)c2=O)cc1OC -1.32

Then this molecule: COc1ccccc1CC(NC(C)=O)C(=O)NC1CCN(C(=O)Nc2ccc(F)cc2)CC1 (stereo not drawn) -1.82

Then this molecule: OCCC1CN(Cc2ccon2)CCN1Cc1ccc(F)c(F)c1 (stereo not drawn) -13.9

Then this molecule: OCCC1CN(Cc2cccc3nccnc23)CCN1Cc1ccc(F)c(F)c1 (stereo not drawn) -56.4

Then this molecule: C=CCNCCOc1c(C)cc(C)cc1Cl.O=C(O)C(=O)O -21.2

Then this molecule: CC(C)CN1CCN(Cc2cccc3nccnc23)CC1CCO (stereo not drawn) -8.4

Then this molecule: CC(C)=CCN1CCN(Cc2cccc3nccnc23)CC1CCO (stereo not drawn) -8.42

Then this molecule: CCOC(=O)N1CCC(N2CC34C=CC(O3)C(C(=O)Nc3ccc(OCC)cc3)C4C2=O)CC1 (stereo not drawn) -18.7

Then this molecule: COCCCNCCCCOc1c(Cl)cc(C)cc1Br.O=C(O)C(=O)O -49.2

Then this molecule: CCOC(=O)C1(Cc2ccccc2)CCN(Cc2cccn2-c2cccnc2)CC1 -39

Then this molecule: NC(=O)c1cc(C(N)=O)nc(Cl)n1 16.1

Then this molecule: COc1ccc(NC(=O)C(CCSC)N2C(=O)c3ccccc3C2=O)cc1 (stereo not drawn) -10.3
